- target_entity: protein-protein interaction between Kras and SOS1 (biotin-tagged human Kras loaded with GDP, His-tagged human SOS1) (Homo sapiens (Human), UniProt P01116, G12D)
- experimental_details: Protein-protein interaction inhibition between Kras and SOS1 (KrasG12D-SOS PPI) using AlphaScreen;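 also: kras produced in E. coli, Ni-coupled donor beads and streptavidin acceptor beads, excitation 680 nm with emission detected at 520–620 nm via singlet oxygen transfer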
- Assay type: biochemical
- experimental_parameters: AlphaScreen; biotin-tagged human Kras loaded with GDP, His-tagged human SOS1; read-out: KRAS G12D-SOS PPI IC50
Bridge positions count the residues as written; N and C are the ends. Square brackets hold non-standard residues; d marks the D form. Peptide text beside a SMILES is read from it. * marks the point of attachment. hPhe(3-Cl-4-CF3) = N[C@@H](CCc1ccc(C(F)(F)F)c(Cl)c1)C(=O)O; 3Oxa8azabicyclo(3.2.1)octane = C1CC2COCC1N2*; NMeAla(cPent) = CN[C@@H](CC1CCCC1)C(=O)O; NMeGly(cPent) = CN[C@H](C(=O)O)C1CCCC1; NMeD = CN[C@@H](CC(=O)O)C(=O)O; NMeS = CN[C@@H](CO)C(=O)O; Ac5c = NC1(C(=O)O)CCCC1; Aze = O=C(O)[C@@H]1CCN1; Sar = CNCC(=O)O; Propyl = CCC*
observed_property: IC50 (nM)

1) CCCOC[C@H]1C(=O)N(C)CC(=O)N[C@@H](CCc2ccc(C(F)(F)F)c(Cl)c2)C(=O)N2CCC[C@H]2C(=O)NC2(CCCC2)C(=O)N(C)[C@@H](C2CCCC2)C(=O)N(C)[C@H](C(=O)N2C3CCC2COC3)CC(=O)N(C)[C@@H](CC2CCCC2)C(=O)N[C@@H]([C@@H](C)CC)C(=O)N[C@@H](C)C(=O)N2CC[C@H]2C(=O)N1C [Compound 1359] ([NMeAla(cPent)]IA[Aze][NMeS](Propyl)[Sar][hPhe(3-Cl-4-CF3)]P[Ac5c][NMeGly(cPent)][NMeD]-{3Oxa8azabicyclo(3.2.1)octane}; lactam N-11)    6.2
